Biological target: SFRP-1 (Homo sapiens, UniProt Q8N474)
Sequence (Q8N474 32-314): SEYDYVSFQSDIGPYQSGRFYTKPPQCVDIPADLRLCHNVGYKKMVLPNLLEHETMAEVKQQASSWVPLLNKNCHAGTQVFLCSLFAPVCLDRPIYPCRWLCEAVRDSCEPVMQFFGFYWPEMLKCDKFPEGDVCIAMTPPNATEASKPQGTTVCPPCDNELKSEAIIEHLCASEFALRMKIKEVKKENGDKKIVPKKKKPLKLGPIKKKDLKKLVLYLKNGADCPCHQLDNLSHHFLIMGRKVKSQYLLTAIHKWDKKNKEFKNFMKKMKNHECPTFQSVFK
Test: Cell-based assay for in vitro measurement of SFRP-1/SARP2 antagonist activity (U2OS cells co-transfected with 16x TCF-tk-Luciferase reporter, Wnt and hSFRP-1);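 further: U2OS cells co-transfected with a TCF-tk luciferase reporter, a Wnt vector, hSFRP-1 or empty vector and CMV-βgal, luciferase luminescence read in cell lysates alongside βgal activity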
Conditions: U2OS, read-out: Fold Induction with SFRP-1, Conc 15 μM; with SFRP-1; fold induction over SFRP-1 control, single dose
y if fold induction at 15 µM is below 2. n if not; exact matches included in n.

Below, 3 compounds whose answers are already recorded.
[[record]]
compound = "Cc1ccc(S(=O)(=O)c2ccccc2)cc1S(=O)(=O)NCCCc1ccccc1"
testedtarget = "SFRP-1 (Homo sapiens, UniProt Q8N474)"
categorylabel = "y"

[[record]]
compound = "Cc1ccc(S(=O)(=O)c2ccccc2)cc1S(=O)(=O)NC(C)(C)CO"
testedtarget = "SFRP-1 (Homo sapiens, UniProt Q8N474)"
categorylabel = "y"

[[record]]
compound = "C=CCN(CCc1ccc(OC)c(OC)c1)S(=O)(=O)c1cc(S(=O)(=O)c2ccccc2)ccc1C"
testedtarget = "SFRP-1 (Homo sapiens, UniProt Q8N474)"
categorylabel = "y"


# input Given the entry `Cc1ccc(S(=O)(=O)c2ccccc2Cl)cc1S(=O)(=O)NCCCn1ccnc1` , would its reported fold induction at 15 µM be below 2?
# output y

# input Determine whether this compound shows fold induction at 15 µM lower than 2 (ties excluded): `CCc1ccc(S(=O)(=O)c2ccccc2)cc1S(=O)(=O)NCCc1ccc(OC)c(OC)c1`
# output n

# input fold induction at 15 µM strictly < 2 for this compound? `Cc1ccc(S(=O)(=O)c2ccccc2C)cc1S(=O)(=O)NCCc1ccccn1`
# output y
